B1: SFRS1 (parent)
chain: YSPRRSRGSPRYSPRHSRSRSRT

Variants of: B1
Assay: protein stability index of a GFP-peptide fusion (GPS, HEK-293T) (PSI 1-6); higher = more stable;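 also: lentivirally expressed fusions sorted by FACS into six bins by GFP to DsRed ratio, PSI derived from sequencing read proportions per bin multiplied by bin number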
Details: c terminus: native
Hi there, I'd appreciate the recorded protein stability index for every entry that follows.
Numbers only.

Respectfully, I request protein stability index for each entry included below.
1. S21N
2. T23I
3. S19G
4. R15K

Given back:
1: 3.98; 2: 4.04; 3: 3.95; 4: 3.98
